- TESTED ON: Glycogen synthase kinase-3 beta (Homo sapiens)
- SETTINGS: Compound concentration 20.0 uM
- Description: Thermal Shift Assay. Domain: start/stop: M26-R383
// boundary case: ΔTm equal to -0.3 °C maps to no; strictly smaller maps to yes

{"MOL SMILES": "CC(C)N(C[C@H]1O[C@@H](n2cnc3c(N)ncnc32)[C@H](O)[C@@H]1O)[C@H]1C[C@@H](CCc2nc3cc(C(C)(C)C)ccc3[nH]2)C1", "TESTED ON": "Glycogen synthase kinase-3 beta (Homo sapiens)", "CATEGORY LABEL": "yes"}
{"MOL SMILES": "CCc1c(C#N)c(S[C@@H](C(N)=O)c2ccccc2)nc(N(C)C)c1C#N", "TESTED ON": "Glycogen synthase kinase-3 beta (Homo sapiens)", "CATEGORY LABEL": "no"}
{"MOL SMILES": "CNCCCN1c2ccccc2CCc2ccccc21", "TESTED ON": "Glycogen synthase kinase-3 beta (Homo sapiens)", "CATEGORY LABEL": "yes"}
{"MOL SMILES": "N#Cc1ccc(-c2csc(NN=C3CCCC3)n2)cc1", "TESTED ON": "Glycogen synthase kinase-3 beta (Homo sapiens)", "CATEGORY LABEL": "yes"}
{"MOL SMILES": "Nc1ncnc2c1ncn2[C@@H]1O[C@H](C(=O)N2CCN(CC(=O)Nc3cccc4c3CNC4=O)CC2)[C@@H](O)[C@H]1O", "TESTED ON": "Glycogen synthase kinase-3 beta (Homo sapiens)", "CATEGORY LABEL": "yes"}
{"MOL SMILES": "C[C@@H](Oc1ccc(CNC(=O)c2cccnc2Oc2ccc3c(c2)OCO3)c(F)c1)C(=O)O", "TESTED ON": "Glycogen synthase kinase-3 beta (Homo sapiens)", "CATEGORY LABEL": "no"}
{"MOL SMILES": "O=c1c2nnc(C3CCOCC3)n2cc(Br)n1CC1CCCC1", "TESTED ON": "Glycogen synthase kinase-3 beta (Homo sapiens)", "CATEGORY LABEL": "no"}
{"MOL SMILES": "O=[N+]([O-])c1c(Nc2cc(F)cc(Cl)c2)ccc2nonc12", "TESTED ON": "Glycogen synthase kinase-3 beta (Homo sapiens)", "CATEGORY LABEL": "yes"}
{"MOL SMILES": "COc1nc(Nc2cc(S(C)(=O)=O)ccc2N[C@@H](c2cccc3c2OC(F)(F)O3)c2ncccc2Cl)nc(N2CCNCC2)n1", "TESTED ON": "Glycogen synthase kinase-3 beta (Homo sapiens)", "CATEGORY LABEL": "no"}

---

- TESTED ON: Casein kinase I isoform delta (Homo sapiens)
- SETTINGS: Compound concentration 20.0 uM
- Description: Thermal Shift Assay. Domain: start/stop: M1-K294
Binary call on ΔTm: satisfied from -0.2 °C upward, not satisfied beneath that.

{"MOL SMILES": "COCCOCCn1nc2c(c1C)-c1c(Cl)ccc3c1c(C)c(C(=O)O)n3CCCOc1cc(cc3c(F)c(Cl)ccc13)CCc1cc(nn1C)CSC2", "CATEGORY LABEL": "not satisfied"}
{"MOL SMILES": "O=C(N(CCc1ccccc1)C1CCCCC1)n1ncc(-c2ccc(OC(F)(F)F)cc2)n1", "CATEGORY LABEL": "satisfied"}
{"MOL SMILES": "CCCOc1ccc(CCc2nc3cc(-c4c(C)noc4C)ccc3n2CCN2CCOCC2)cc1", "CATEGORY LABEL": "satisfied"}
{"MOL SMILES": "Cc1c(CN2CCC(Nc3ncnc4sc(CC(F)(F)F)cc34)CC2)ccc2c1cc(C#N)n2Cc1cn[nH]c1", "CATEGORY LABEL": "satisfied"}
{"MOL SMILES": "CCc1c(C#N)c(S[C@@H](C(N)=O)c2ccccc2)nc(N(C)C)c1C#N", "CATEGORY LABEL": "not satisfied"}
{"MOL SMILES": "Nc1ncnc2c1nc(NCc1ccc(-c3ccccc3)cc1)n2[C@@H]1O[C@H](CO)[C@@H](O)[C@H]1O", "CATEGORY LABEL": "not satisfied"}
{"MOL SMILES": "CC(C)(C)c1ccc(CN(C(=O)CN(Cc2c(F)c(F)c(F)c(F)c2F)S(=O)(=O)c2ccc(F)cc2)c2ccc(C(=O)NO)cc2)cc1", "CATEGORY LABEL": "not satisfied"}
{"MOL SMILES": "O=C(NO)c1cccc(C(=O)NCCc2ccccc2)c1", "CATEGORY LABEL": "satisfied"}
